tested on: TAB109; test: qHTS profiling for inhibitors of Plasmodium falciparum proliferation (AID 504749); note: nearly all actives have a fitted effect of over 60% in size; settings: P. falciparum in erythrocytes, SYBR Green DNA, 72 h; series mostly up to 12.8 µM
Results filed as inconclusive are left out. Active and inactive are the calls of the source. Calls come from the whole dose curve; as a rule, active = well fitted inhibition curve with a large enough effect; inconclusive = small, poorly fitted or top-dose-only effect; inactive = flat fitted curve, though single readings scatter.
readout.name: outcome

structure_smiles_string=CC1(C)O[C@@H]2C[C@H]3[C@H]4C[C@H](F)C5=CC(=O)C=C[C@@]5(C)[C@@H]4[C@H](O)C[C@]3(C)[C@]2(C(=O)CO)O1 measured_result=inactive
structure_smiles_string=CCCN[C@@H](C)C(=O)Nc1c(C)csc1C(=O)OC measured_result=inactive
structure_smiles_string=CO[C@H]1C[C@@H](O[C@@H]2[C@H](C)[C@H](O[C@@H]3O[C@@H](C)C[C@@H](N(C)C)[C@@H]3O)[C@H](C)C[C@]3(CO3)C(=O)[C@H](C)[C@H](O)[C@H](C)[C@H](C)OC(=O)[C@@H]2C)O[C@@H](C)[C@H]1O measured_result=inactive

* * *

molecular target: Ubiquitin carboxyl-terminal hydrolase 1 (Homo sapiens); test: Inhibitors of USP1/UAF1: Pilot qHTS (AID 504865); conditions: purified USP1/UAF1, Ub-rhodamine cleavage fluorescence; series mostly up to 54.9 µM; note: nearly all actives have a fitted effect of over 35% in size
Records with an inconclusive call do not appear. Activity calls are given as the source filed them. Calls come from the whole dose curve; as a rule, active = well fitted inhibition curve with a large enough effect; inconclusive = small, poorly fitted or top-dose-only effect; inactive = flat fitted curve, though single readings scatter.
Outcomes: true (active), false (inactive)

molecule=COc1cccc(-c2cncnc2NCc2cccc(C)c2)c1 measured_target="Ubiquitin carboxyl-terminal hydrolase 1 (Homo sapiens)" category=false
molecule=N#CCCn1c(=O)cnc2cnc(Oc3cccc(Cl)c3)nc21 measured_target="Ubiquitin carboxyl-terminal hydrolase 1 (Homo sapiens)" category=false
molecule=CN(C)c1nc(-c2cccnc2)nc2ccccc12 measured_target="Ubiquitin carboxyl-terminal hydrolase 1 (Homo sapiens)" category=false
molecule=O=c1c(-c2ccc(F)cc2)nc2cncnc2n1Cc1ccccc1 measured_target="Ubiquitin carboxyl-terminal hydrolase 1 (Homo sapiens)" category=false
molecule=COCCn1c(=O)c(-c2ccc(OC)cc2)nc2cnc(OCc3ccccc3)nc21 measured_target="Ubiquitin carboxyl-terminal hydrolase 1 (Homo sapiens)" category=false
molecule=COc1ccccc1-c1cc(NCc2cccs2)ncn1 measured_target="Ubiquitin carboxyl-terminal hydrolase 1 (Homo sapiens)" category=false
molecule=Cc1cccc(CNc2ccnc(-c3cccc(C#N)c3)n2)c1 measured_target="Ubiquitin carboxyl-terminal hydrolase 1 (Homo sapiens)" category=false
molecule=COCCn1c(=O)c(-c2cccc(C#N)c2)nc2cnc(N3CCOCC3)nc21 measured_target="Ubiquitin carboxyl-terminal hydrolase 1 (Homo sapiens)" category=false
molecule=CN(C)Cc1ccccc1-c1nccc(NC2CC2)n1 measured_target="Ubiquitin carboxyl-terminal hydrolase 1 (Homo sapiens)" category=false
molecule=COc1ccc(CNc2nc(-c3ccc4c(c3)OCO4)nc3ccccc23)c(OC)c1 measured_target="Ubiquitin carboxyl-terminal hydrolase 1 (Homo sapiens)" category=false
molecule=O=c1c(-c2ccccc2)nc2cnc(Oc3cccc(Cl)c3)nc2n1C1CC1 measured_target="Ubiquitin carboxyl-terminal hydrolase 1 (Homo sapiens)" category=false
molecule=COc1cccc(Cn2c(=O)c(-c3cccc(C#N)c3)nc3cnc(N4CCOCC4)nc32)c1 measured_target="Ubiquitin carboxyl-terminal hydrolase 1 (Homo sapiens)" category=false
molecule=CC(C)=CCC/C(C)=C/CC/C(C)=C/CC/C(C)=C/CC/C(C)=C/CC/C(C)=C/CC/C(C)=C/CC/C(C)=C/CC/C(C)=C/CO measured_target="Ubiquitin carboxyl-terminal hydrolase 1 (Homo sapiens)" category=false
molecule=CS(=O)(=O)Nc1cccc(-c2cncnc2NCc2cccnc2)c1 measured_target="Ubiquitin carboxyl-terminal hydrolase 1 (Homo sapiens)" category=false
molecule=COCCn1c(=O)c(-c2ccc(OC)cc2)nc2cnc(N3CCOCC3)nc21 measured_target="Ubiquitin carboxyl-terminal hydrolase 1 (Homo sapiens)" category=false
molecule=CN1CCN(c2ncnc3ccc(-c4cccnc4)cc23)CC1 measured_target="Ubiquitin carboxyl-terminal hydrolase 1 (Homo sapiens)" category=false
molecule="C#C[C@]1(OC(C)=O)CCC2C3CCC4=CC(=O)CCC4C3CC[C@]21C (stereo not given in full)" measured_target="Ubiquitin carboxyl-terminal hydrolase 1 (Homo sapiens)" category=false
molecule=C=C[C@](C)(O)CCC=C(C)C measured_target="Ubiquitin carboxyl-terminal hydrolase 1 (Homo sapiens)" category=false
molecule=c1cncc(-c2ccc3ncnc(NCCN4CCOCC4)c3c2)c1 measured_target="Ubiquitin carboxyl-terminal hydrolase 1 (Homo sapiens)" category=false
molecule=FC(F)(F)c1ccccc1-c1nc(-n2ccnc2)c2ccccc2n1 measured_target="Ubiquitin carboxyl-terminal hydrolase 1 (Homo sapiens)" category=false
molecule=CC1(C)Oc2ccc(C#N)cc2[C@H](N2CCCC2=O)[C@H]1O measured_target="Ubiquitin carboxyl-terminal hydrolase 1 (Homo sapiens)" category=false
molecule=COc1ccc(CNc2ncnc3ccc(-c4ccc(N(C)C)cc4)cc23)c(OC)c1 measured_target="Ubiquitin carboxyl-terminal hydrolase 1 (Homo sapiens)" category=false
molecule=O=c1c(-c2ccc(Cl)cc2)nc2cnc(Nc3ccccc3)nc2n1C[C@H]1CCCO1 measured_target="Ubiquitin carboxyl-terminal hydrolase 1 (Homo sapiens)" category=false
molecule=CS(=O)(=O)Nc1cccc(-c2nccc(-n3ccnc3)n2)c1 measured_target="Ubiquitin carboxyl-terminal hydrolase 1 (Homo sapiens)" category=false
molecule=COc1ccc(-n2c(=O)c(-c3ccccc3)nc3cncnc32)cc1 measured_target="Ubiquitin carboxyl-terminal hydrolase 1 (Homo sapiens)" category=false
molecule=CN(C)c1ncnc2ccc(-c3cccc(C#N)c3)cc12 measured_target="Ubiquitin carboxyl-terminal hydrolase 1 (Homo sapiens)" category=false
molecule=CCOC(=O)c1c(C)cc(OC)cc1O measured_target="Ubiquitin carboxyl-terminal hydrolase 1 (Homo sapiens)" category=false
molecule=O=c1c(-c2cccc(Cl)c2)nc2cncnc2n1-c1ccccc1 measured_target="Ubiquitin carboxyl-terminal hydrolase 1 (Homo sapiens)" category=false
molecule=COc1cccc(-c2cc(NCc3ccccc3OC)ncn2)c1 measured_target="Ubiquitin carboxyl-terminal hydrolase 1 (Homo sapiens)" category=false
molecule=COc1ccc(Nc2ncc3nc(-c4cccs4)c(=O)n(Cc4cccc(OC)c4)c3n2)cc1 measured_target="Ubiquitin carboxyl-terminal hydrolase 1 (Homo sapiens)" category=false
molecule=COCCNc1ncnc2ccc(-c3ccccc3C(F)(F)F)cc12 measured_target="Ubiquitin carboxyl-terminal hydrolase 1 (Homo sapiens)" category=false
molecule=COc1ccc2[nH]cc(CCNc3ncnc4ccc(-c5ccc6c(c5)OCO6)cc34)c2c1 measured_target="Ubiquitin carboxyl-terminal hydrolase 1 (Homo sapiens)" category=false
molecule=Cn1c(=O)c(-c2cc(F)cc(F)c2)nc2cnc(Nc3ccccc3)nc21 measured_target="Ubiquitin carboxyl-terminal hydrolase 1 (Homo sapiens)" category=false
molecule=COc1ccc(CNc2ncnc3ccc(-c4ccoc4)cc23)c(OC)c1 measured_target="Ubiquitin carboxyl-terminal hydrolase 1 (Homo sapiens)" category=false
molecule=COc1cccc(Cn2c(=O)c(-c3cccs3)nc3cnc(OCc4ccccc4)nc32)c1 measured_target="Ubiquitin carboxyl-terminal hydrolase 1 (Homo sapiens)" category=false
molecule=N#C/C(=C\c1ccc(O)c(O)c1)C(=O)NCCCCc1ccccc1 measured_target="Ubiquitin carboxyl-terminal hydrolase 1 (Homo sapiens)" category=true
molecule=CC(=O)O[C@]1(C(C)=O)CC[C@@H]2[C@@H]3C=C(Cl)C4=CC(=O)[C@H]5C[C@@H]5[C@]4(C)[C@H]3CC[C@]21C measured_target="Ubiquitin carboxyl-terminal hydrolase 1 (Homo sapiens)" category=false
molecule=COc1ccccc1CNc1cc(-c2ccccc2C(F)(F)F)ncn1 measured_target="Ubiquitin carboxyl-terminal hydrolase 1 (Homo sapiens)" category=false
molecule=FC(F)(F)c1ccccc1-c1nc(NC2CC2)c2ccccc2n1 measured_target="Ubiquitin carboxyl-terminal hydrolase 1 (Homo sapiens)" category=false
molecule=CN1CCN(c2ncc3nc(-c4cccc(C#N)c4)c(=O)n(C[C@H]4CCCO4)c3n2)CC1 measured_target="Ubiquitin carboxyl-terminal hydrolase 1 (Homo sapiens)" category=false
molecule=Cc1cnc(CNc2cc(-c3ccc4c(c3)OCO4)ncn2)cn1 measured_target="Ubiquitin carboxyl-terminal hydrolase 1 (Homo sapiens)" category=false
molecule=COCCn1c(=O)c(C)nc2cnc(Nc3cccc(OC)c3)nc21 measured_target="Ubiquitin carboxyl-terminal hydrolase 1 (Homo sapiens)" category=false
molecule=Nc1nc2n[nH]nc2c(=O)[nH]1 measured_target="Ubiquitin carboxyl-terminal hydrolase 1 (Homo sapiens)" category=false
molecule=c1csc(CNc2ncncc2-c2ccoc2)c1 measured_target="Ubiquitin carboxyl-terminal hydrolase 1 (Homo sapiens)" category=false
molecule=Cc1ccccc1-c1cc(NCc2cccnc2)ncn1 measured_target="Ubiquitin carboxyl-terminal hydrolase 1 (Homo sapiens)" category=false
